FYI, the data here is from patent US20240109883A1.

# CC50 at 7 d per record follows
EXPERIMENT NOTES: MRC5 TOX 7 d
Assay type: cell-based
SETTINGS: human

COMPOUND STRUCTURE | CC50 at 7 d
NC(=O)Nc1cnc2c(c1)CN(c1ncc(Cc3ccc(N4CCOCC4)cc3)s1)CC2 | > 50 µM
NC(=O)Nc1ccc2c(c1)CN(c1ncc(Cc3ccc(-c4ccco4)cc3)s1)CC2 | > 2.89 µM
NC(=O)Nc1ccc2c(c1)CN(c1ncc(Cc3ccc(N4CCS(=O)(=O)CC4)cc3)s1)CC2 | > 50 µM
CN(C)C(=O)Nc1ccc2c(c1)CN(c1ncc(Cc3ccc(-n4cccn4)cc3)s1)CC2 | > 4.43 µM
CN1CC(Oc2ccc(Cc3cnc(N4CCc5ccc(NC(N)=O)cc5C4)s3)cc2)C1 | 43.4 µM
CN(C)C(=O)N(C)c1ccc2c(c1)CN(c1ncc(Cc3ccc(-n4cccn4)cc3)s1)CC2 | 21.4 µM
